Reference source for all entries: patent US20230331827A1

- Test System: T1, huKv1.3 (Homo sapiens, UniProt P22001)
- T1 construct: host or cells: CHO
- T1 sequence (P22001 whole entry): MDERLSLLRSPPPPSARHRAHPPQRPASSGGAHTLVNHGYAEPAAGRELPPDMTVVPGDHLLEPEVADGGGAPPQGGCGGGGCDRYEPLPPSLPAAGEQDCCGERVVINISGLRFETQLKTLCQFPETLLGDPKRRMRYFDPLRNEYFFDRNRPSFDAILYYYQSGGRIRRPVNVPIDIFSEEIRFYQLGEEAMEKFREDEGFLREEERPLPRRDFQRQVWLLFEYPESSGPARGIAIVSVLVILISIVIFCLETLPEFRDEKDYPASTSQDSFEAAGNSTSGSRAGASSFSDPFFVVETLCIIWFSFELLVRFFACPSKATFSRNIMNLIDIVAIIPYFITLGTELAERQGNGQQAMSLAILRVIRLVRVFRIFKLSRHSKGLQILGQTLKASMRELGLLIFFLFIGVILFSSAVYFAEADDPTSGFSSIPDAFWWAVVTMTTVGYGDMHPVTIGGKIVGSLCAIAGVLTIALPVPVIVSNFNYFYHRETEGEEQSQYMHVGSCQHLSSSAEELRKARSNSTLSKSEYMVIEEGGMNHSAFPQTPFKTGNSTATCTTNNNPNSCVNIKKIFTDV
- Assay Details: QPatch automated whole-cell patch-clamp, CHO cells stably expressing huKv1.3 (Example 8)
- Assay type: cell-based
- Condition Label: Kv1.3 channels, IgG KnotBody, Table 11A
Attribute Measured: IC50 (nM)

Molecule	Result Unit	Qualifier Operator	Reported Value
KB_A12_KTX: kaliotoxin in VL CDR2 of KB_A12, IgG1 (antibody) VH: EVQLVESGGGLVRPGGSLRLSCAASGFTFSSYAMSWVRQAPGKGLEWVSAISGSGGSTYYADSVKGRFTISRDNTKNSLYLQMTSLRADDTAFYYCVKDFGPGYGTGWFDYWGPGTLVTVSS VL: QSVLTQPPSVSEAPRQRVTITCSGSSSNIGNNAVNWYQQLPGKAPKLLIYAAGRGVEINVKCSGSPQCLKPCKDAGMRFGKCMNRKCHCTPKANSGVSDRFSAAKSGTSASLAINGLRSEDEADYYCAAWDDSLNGYVFGTGTKLTVLGQP	nM	>	10000
KB_A12_ShK: ShK toxin in VL CDR2 of KB_A12, IgG1 (antibody, V domains shown) VH: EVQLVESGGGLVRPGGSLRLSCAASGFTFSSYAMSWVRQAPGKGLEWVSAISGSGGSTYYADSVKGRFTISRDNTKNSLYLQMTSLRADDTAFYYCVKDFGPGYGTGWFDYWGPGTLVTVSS VL: QSVLTQPPSVSEAPRQRVTITCSGSSSNIGNNAVNWYQQLPGKAPKLLIYAAGRRSCIDTIPKSRCTAFQCKHSMKYRLSFCRKTCGTCANSGVSDRFSAAKSGTSASLAINGLRSEDEADYYCAAWDDSLNGYVFGTGTKLTVLG	nM	=	20
KB_A07_ShK: ShK toxin in VL CDR2 of KB_A07, IgG1 (antibody, V domains shown) VH: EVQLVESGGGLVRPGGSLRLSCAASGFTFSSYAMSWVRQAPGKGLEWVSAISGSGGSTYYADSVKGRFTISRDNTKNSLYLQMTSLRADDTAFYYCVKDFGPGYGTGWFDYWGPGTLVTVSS VL: DIQMTQSPSSLSASVGDRVTITCRASQSISSYLNWYQQKPGKAPKLLIYAAGVRSCIDTIPKSRCTAFQCKHSMKYRLSFCRKTCGTCSRSGVPSRFSGSGSGTDFTLTISSLQPEDFATYYCQQGASPPYTFGQGTKVEIKR	nM	=	40
KB_A12: EETI-II knottin fused into VL CDR2, D1A12 VH; parental KnotBody, isotype control (antibody, V domains shown) VH: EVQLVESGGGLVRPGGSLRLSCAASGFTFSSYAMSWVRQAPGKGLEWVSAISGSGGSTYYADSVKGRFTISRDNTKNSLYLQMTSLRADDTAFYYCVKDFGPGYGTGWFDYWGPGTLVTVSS VL: QSVLTQPPSVSEAPRQRVTITCSGSSSNIGNNAVNWYQQLPGKAPKLLIYAAGRCPRILMRCKQDSDCLAGCVCGPNGFCGANSGVSDRFSAAKSGTSASLAINGLRSEDEADYYCAAWDDSLNGYVFGTGTKLTVLGQP	nM	>	10000
